# Test system: MT4
# METHOD_NOTES: Cytotoxicity against human MT4 cells assessed as viable cells at 50 uM after 3 days by tryptan blue dye assay
# Assay type: cell-based
# SETUP_CONDITIONS: mt4, 72 h
MEASURED_METRIC: Activity

CC1=N[C@H](CC(C)C)C(=O)N(Cc2ccc(C3CCCCC3)cc2)c2cc(C(=O)O)ccc21 Non-toxic
CCCCCCCCCCNC(=O)CN1C(=O)[C@@H](CC(C)C)N=C(C)c2ccc(C(=O)O)cc21 Non-toxic
CC1=N[C@H](CC(C)C)C(=O)N(Cc2ccc(-c3ccccc3)cc2)c2cc(C(=O)O)ccc21 Non-toxic
CCCCCCCCCCCCCCCCNC(=O)CN1C(=O)[C@@H](CC(C)C)N=C(C)c2ccc(C(=O)O)cc21 Toxic

* * *

# EXPERIMENTAL_TARGET: Protease (Human immunodeficiency virus 1)
# METHOD_NOTES: Inhibition of recombinant HIV-1 protease expressed in Escherichia coli using Arg-Glu (EDANS)-Ser-Gln-Asn-Tyr-Pro-Ile-Val-Gln Lys(DABCYL)-Arg as substrate by spectrofluorometric analysis
pKi: −log10 of the molar value.
Mark t for reported pKi of 4 or greater; mark f for anything smaller.

Ask: Decide: pKi of "CC1=N[C@H](CC(C)C)C(=O)N(CC(=O)N2CCN(C(=O)OC(C)(C)C)CC2)c2cc(C(=O)OC(C)(C)C)ccc21" >= 4?
Reply: f

Ask: Now this one: "CC1=N[C@H](CC(C)C)C(=O)N(CC(=O)N2CCN(C(=O)OCC3c4ccccc4-c4ccccc43)CC2)c2cc(C(=O)OC(C)(C)C)ccc21"
Reply: f

Ask: And the next one, "CC1=N[C@@H](C)C(=O)Nc2cc(C(=O)O)ccc21" ?
Reply: f

Ask: Could you do the same for "CC1=N[C@@H](Cc2ccccc2)C(=O)Nc2cc(C(=O)OC(C)(C)C)ccc21" , please?
Reply: t

Ask: Next record, please: "CC1=N[C@H](CC(C)C)C(=O)N(Cc2ccncc2)c2cc(C(=O)OC(C)(C)C)ccc21"
Reply: f

Ask: What about this molecule? "CC1=NCC(=O)N(Cc2ccc(C3CCCCC3)cc2)c2cc(C(=O)OC(C)(C)C)ccc21"
Reply: f

Ask: // query: "CC1=N[C@H](CC(C)C)C(=O)N(Cc2ccncc2)c2cc(C(=O)O)ccc21"
Reply: f

Ask: Would you mind doing "CCCCCCCCCCCCCCCCNC(=O)CN1C(=O)[C@@H](CC(C)C)N=C(C)c2ccc(C(=O)O)cc21" as well?
Reply: t

* * *

# EXPERIMENTAL_TARGET: Protease (Human immunodeficiency virus 1)
# METHOD_NOTES: Inhibition of recombinant HIV-1 protease expressed in Escherichia coli using Arg-Glu (EDANS)-Ser-Gln-Asn-Tyr-Pro-Ile-Val-Gln Lys(DABCYL)-Arg as substrate by spectrofluorometric analysis
MEASURED_METRIC: Ki (µM)
Please reply with the bare figure in µM and do not write the unit itself.

Ask: Could you share which Ki value was measured for "CC1=N[C@H](CC(C)C)C(=O)N(CC(C)C)c2cc(C(=O)OC(C)(C)C)ccc21" ?
Reply: 89

Ask: Quick one: "CC1=N[C@@H](C)C(=O)N(Cc2ccc(C3CCCCC3)cc2)c2cc(C(=O)O)ccc21"
Reply: 56

Ask: Do the same for "CC1=N[C@H](Cc2ccccc2)C(=O)N(Cc2ccc(C3CCCCC3)cc2)c2cc(C(=O)OC(C)(C)C)ccc21" please
Reply: 131

Ask: Repeat for the following compound: "CC1=N[C@H](CC(C)C)C(=O)N(Cc2ccc(C3CCCCC3)cc2)c2cc(C(=O)OC(C)(C)C)ccc21"
Reply: 65

Ask: Another compound: CCC(C)[C@@H]1N=C(C)c2ccc(C(=O)OC(C)(C)C)cc2N(Cc2ccc(C3CCCCC3)cc2)C1=O (single isomer, unassigned)
Reply: 108

Ask: Now consider "CC1=N[C@@H](Cc2ccccc2)C(=O)N(Cc2ccc(C3CCCCC3)cc2)c2cc(C(=O)O)ccc21" and answer again.
Reply: 47

Ask: Now try "CC(C)C[C@H]1N=C(c2ccccc2)c2ccc(C(=O)OC(C)(C)C)cc2N(Cc2ccc(C3CCCCC3)cc2)C1=O" .
Reply: 88

Ask: Moving on to "CC1=N[C@H](CC(C)C)C(=O)N(CC(=O)NCCc2ccccc2)c2cc(C(=O)O)ccc21"
Reply: 75

Ask: Repeat for the following compound: "CC1=N[C@H](CC(C)C)C(=O)N(CC(=O)NCCc2ccccc2)c2cc(C(=O)OC(C)(C)C)ccc21"
Reply: 95

Ask: Here is the next compound: "CC1=N[C@H](Cc2ccccc2)C(=O)Nc2cc(C(=O)OC(C)(C)C)ccc21"
Reply: 88

Ask: Follow-up item: CCC(C)[C@@H]1N=C(C)c2ccc(C(=O)O)cc2N(Cc2ccc(C3CCCCC3)cc2)C1=O (single isomer, unassigned)
Reply: 53

Ask: Follow-up item: "CC1=N[C@H](CC(C)C)C(=O)N(Cc2ccc(-c3ccccc3)cc2)c2cc(C(=O)OC(C)(C)C)ccc21"
Reply: 62

Ask: Could you do the same for "CC1=N[C@@H](CC(C)C)C(=O)Nc2cc(C(=O)OC(C)(C)C)ccc21" , please?
Reply: 193

* * *

# EXPERIMENTAL_TARGET: Protease (Human immunodeficiency virus 1, UniProt Q9YQ12)
# Sequence (Q9YQ12 whole entry): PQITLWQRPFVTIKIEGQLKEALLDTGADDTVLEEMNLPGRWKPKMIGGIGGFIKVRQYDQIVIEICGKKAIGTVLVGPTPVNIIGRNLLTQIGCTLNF
# METHOD_NOTES: Inhibition of recombinant HIV-1 protease expressed in Escherichia coli using Arg-Glu (EDANS)-Ser-Gln-Asn-Tyr-Pro-Ile-Val-Gln Lys(DABCYL)-Arg as substrate by spectrofluorometric analysis
Record form. Attribute: pKi. Fill in for each entry.
// returns pKi (minus log10 of molar concentration), number only

Ask: Bench note: what pKi did "CC1=N[C@@H](CC(C)C)C(=O)N(Cc2ccc(C3CCCCC3)cc2)c2cc(C(=O)O)ccc21" show?
Reply: 4.57

Ask: Here is the next molecule: "CC1=N[C@@H](C)C(=O)N(Cc2ccc(C3CCCCC3)cc2)c2cc(C(=O)OC(C)(C)C)ccc21"
Reply: 4.06

Ask: Same question, "CC(C)C[C@H]1N=C(c2ccccc2)c2ccc(C(=O)O)cc2N(Cc2ccc(C3CCCCC3)cc2)C1=O" this time
Reply: 4.17

Ask: Cool, now "CC1=N[C@H](CC(C)C)C(=O)N(Cc2ccc(C3CCCCC3)cc2)c2cc(C(=O)O)ccc21"
Reply: 4.72

Ask: Let us now turn to "CC1=N[C@H](CC(C)C)C(=O)N(Cc2ccc(C(C)(C)C)cc2)c2cc(C(=O)OC(C)(C)C)ccc21"
Reply: 3.83

Ask: Follow-up item: CCC(C)[C@@H]1N=C(C)c2ccc(C(=O)O)cc2NC1=O (single isomer, unassigned)
Reply: 3.80

* * *

# EXPERIMENTAL_TARGET: Protease (Human immunodeficiency virus 1, UniProt Q9YQ12)
# METHOD_NOTES: Inhibition of recombinant HIV-1 protease expressed in Escherichia coli using Arg-Glu (EDANS)-Ser-Gln-Asn-Tyr-Pro-Ile-Val-Gln Lys(DABCYL)-Arg as substrate by spectrofluorometric analysis
Response field label takes Y when Ki is strictly below 50 µM and N in all other cases.

Ask: Dear colleague, could you confirm whether Ki of "CC1=N[C@H](CC(C)C)C(=O)N(Cc2ccc(-c3ccccc3)cc2)c2cc(C(=O)O)ccc21" falls below 50 µM? Thanks.
Reply: Y

Ask: Same again, this time with "CCCCCCNC(=O)CN1C(=O)[C@@H](CC(C)C)N=C(C)c2ccc(C(=O)O)cc21"
Reply: N

Ask: Moving on to the next compound: "CC1=N[C@H](CC(C)C)C(=O)N(Cc2ccccc2)c2cc(C(=O)OC(C)(C)C)ccc21"
Reply: N

Ask: Try "CC1=N[C@H](CC(C)C)C(=O)N(Cc2ccc(C(C)(C)C)cc2)c2cc(C(=O)O)ccc21" next.
Reply: Y

Ask: Param item: "CC1=N[C@H](Cc2ccccc2)C(=O)N(Cc2ccc(C3CCCCC3)cc2)c2cc(C(=O)O)ccc21"
Reply: N

Ask: Then "CC1=N[C@H](CC(C)C)C(=O)N(CC(=O)N2CCN(C(=O)OCc3ccccc3)CC2)c2cc(C(=O)OC(C)(C)C)ccc21" ?
Reply: N

Ask: Lookup "CC1=N[C@@H](Cc2ccccc2)C(=O)Nc2cc(C(=O)O)ccc21"
Reply: N

* * *

Exercise: state measured pKi for each of the compounds provided.
# EXPERIMENTAL_TARGET: Protease (Human immunodeficiency virus 1, UniProt Q9YQ12)
# METHOD_NOTES: Inhibition of recombinant HIV-1 protease expressed in Escherichia coli using Arg-Glu (EDANS)-Ser-Gln-Asn-Tyr-Pro-Ile-Val-Gln Lys(DABCYL)-Arg as substrate by spectrofluorometric analysis
pKi: −log10 of the molar value.

Ask: Endpoint output: pKi of "CCCCCCCCCCNC(=O)CN1C(=O)[C@@H](CC(C)C)N=C(C)c2ccc(C(=O)O)cc21" . Value?
Reply: 4.96

Ask: Let us now turn to "CC1=N[C@@H](CC(C)C)C(=O)Nc2cc(C(=O)O)ccc21"
Reply: < 3.70

Ask: Request: "CC1=N[C@H](CC(C)C)C(=O)N(CC(=O)O)c2cc(C(=O)O)ccc21"
Reply: < 3.70

Ask: Can you handle "CC1=N[C@H](CC(C)C)C(=O)N(Cc2ccccc2)c2cc(C(=O)O)ccc21" next?
Reply: < 3.70

Ask: One more compound: "CC1=N[C@H](Cc2ccccc2)C(=O)Nc2cc(C(=O)O)ccc21"
Reply: < 3.70
